# targetOrSystem: Btk (Homo sapiens)
# Sequence (Q06187 whole entry): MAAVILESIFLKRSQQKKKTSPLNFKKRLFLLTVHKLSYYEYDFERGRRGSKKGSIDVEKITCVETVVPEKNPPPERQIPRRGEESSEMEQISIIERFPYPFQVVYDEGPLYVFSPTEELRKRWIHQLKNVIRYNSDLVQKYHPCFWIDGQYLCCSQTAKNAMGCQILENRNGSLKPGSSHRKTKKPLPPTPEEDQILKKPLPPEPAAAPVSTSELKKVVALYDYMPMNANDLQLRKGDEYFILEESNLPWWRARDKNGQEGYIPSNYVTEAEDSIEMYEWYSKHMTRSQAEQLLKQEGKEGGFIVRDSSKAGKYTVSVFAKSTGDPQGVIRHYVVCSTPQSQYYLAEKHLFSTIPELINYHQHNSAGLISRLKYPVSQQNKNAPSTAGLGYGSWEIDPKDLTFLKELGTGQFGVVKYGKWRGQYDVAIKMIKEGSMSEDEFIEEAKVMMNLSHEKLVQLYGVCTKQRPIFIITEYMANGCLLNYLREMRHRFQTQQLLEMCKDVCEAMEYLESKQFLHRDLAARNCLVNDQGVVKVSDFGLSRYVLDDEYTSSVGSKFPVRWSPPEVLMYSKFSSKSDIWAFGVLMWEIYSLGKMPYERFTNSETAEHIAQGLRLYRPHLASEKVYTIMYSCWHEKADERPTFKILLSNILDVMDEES
pIC50: −log10 of the molar value.
measurementKind: pIC50

O=c1[nH]c2cc3nc(-c4ccc5oc6ccccc6c5c4)n(CCCN4CCCCC4)c3cc2nc1-c1ccccc1 [CTA095]
< 5.00

---

# Tested on: PC3 cells
# runDescription: MTT growth inhibition assay
# Format: cell-based, human
# studyConditions: Homo sapiens, PC-3; PC3, MTT, 72 h
measurementKind: IC50 (µM)

O=c1[nH]c2cc3nc(-c4ccc5oc6ccccc6c5c4)n(CCCN4CCCCC4)c3cc2nc1-c1ccccc1 [CTA095]
4.5

---

# targetOrSystem: Lyn (Homo sapiens)
# Sequence (P07948 whole entry, species assumed): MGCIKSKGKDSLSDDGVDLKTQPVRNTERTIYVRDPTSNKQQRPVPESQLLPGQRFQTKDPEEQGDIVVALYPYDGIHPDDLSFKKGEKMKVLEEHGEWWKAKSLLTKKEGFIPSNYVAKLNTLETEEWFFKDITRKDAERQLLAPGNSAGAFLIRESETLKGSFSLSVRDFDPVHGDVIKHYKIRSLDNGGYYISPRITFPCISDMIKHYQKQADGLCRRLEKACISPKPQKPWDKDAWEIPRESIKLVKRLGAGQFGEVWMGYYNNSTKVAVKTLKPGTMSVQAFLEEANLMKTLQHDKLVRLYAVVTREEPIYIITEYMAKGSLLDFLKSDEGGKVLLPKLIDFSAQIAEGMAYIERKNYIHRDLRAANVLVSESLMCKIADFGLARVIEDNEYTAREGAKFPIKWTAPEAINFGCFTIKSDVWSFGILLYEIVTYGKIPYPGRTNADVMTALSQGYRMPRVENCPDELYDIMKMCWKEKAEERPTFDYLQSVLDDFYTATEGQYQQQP
measurementKind: IC50

O=c1[nH]c2cc3nc(-c4ccc5oc6ccccc6c5c4)n(CCCN4CCCCC4)c3cc2nc1-c1ccccc1
> 10 µM
